Tested on: SF-539 CNS
Assay: NCI-60 one-dose screen, 48 h (100 = growth as untreated, 0 = no growth, -100 = all killed)
Conditions: 10 µM unless noted
Compounds without any hit were thinned out: in the full panel of roughly 83,000, 20% have a hit.
I would appreciate it if you labelled entries 1 (yes) when growth is 10% or higher, otherwise 0 (no).

[
  {
    "COMPOUND": "O=C1/C(=C/c2ccccc2)CN(C(=O)C(Cl)Cl)C/C1=C\\c1ccccc1",
    "SYSTEM TESTED": "SF-539 CNS",
    "GROUP LABEL": "0 (no)"
  }
]

Query string: Assess whether reported growth for N#C/C(=C\c1ccc(Br)cc1)n1nnc2c(F)cccc21 sits at 10% or higher.
Result string: 0 (no)

Query string: Assess whether reported growth for CCN(CC)CCOc1ccccc1C sits at 10% or higher.
Result string: 1 (yes)

Query string: Assess whether reported growth for O=C1OCC2=C1C(c1cccc(C(F)(F)F)c1)c1cc3c(cc1N2CCO)OCCO3 (stereo unspecified) sits at 10% or higher.
Result string: 0 (no)

Query string: Assess whether reported growth for O=C(/C=C/c1ccc(F)cc1)Nc1ncc(Cc2ccc(F)cc2)s1 sits at 10% or higher.
Result string: 1 (yes)

Query string: Assess whether reported growth for O=C1C(Nc2ccc(Cl)cc2)=C(I)C(=O)c2ncccc21 sits at 10% or higher.
Result string: 0 (no)

Query string: Assess whether reported growth for CCN1C(=S)N(CC)C2C1NC(=S)N2/N=C/C=C/c1ccccc1 (stereo unspecified) sits at 10% or higher.
Result string: 1 (yes)

Query string: Assess whether reported growth for Cc1ccc(-c2nc(C#N)c(S(=O)(=O)N(C)C)o2)cc1 sits at 10% or higher.
Result string: 1 (yes)

Query string: Assess whether reported growth for COc1ccc(N2CCN(S(=O)(=O)c3oc(-c4ccccc4)nc3C#N)CC2)cc1 sits at 10% or higher.
Result string: 1 (yes)

Query string: Assess whether reported growth for Nc1[nH]nc(Nc2ccccc2)c1-c1nc2ccccc2s1 sits at 10% or higher.
Result string: 1 (yes)

----------
System: NCI-H322M lung
Experiment: NCI-60 one-dose screen, 48 h (100 = growth as untreated, 0 = no growth, -100 = all killed)
Details: 10 µM unless noted
The panel holds about 83,000 compounds, 20% with a hit somewhere; the sample as a whole holds those more often.
QUANTITY KIND: growth (%)
Report the figure in % without appending any unit label.

Answered examples (3):
[
  {
    "MOLECULE": "Nc1nc(Nc2cccnc2)sc1C(=O)c1ccccc1F",
    "growth, %": 54.7
  },
  {
    "MOLECULE": "Cn1cc2c(=O)nc3c(-c4nc5ccccc5[nH]4)n[nH]n3c2n1",
    "growth, %": 91.8
  },
  {
    "MOLECULE": "C=C(c1ccc(C(=O)O)cc1)c1cc2c(cc1C)C(C)(C)CCC2(C)C",
    "growth, %": 72
  }
]

Query string: Can you share its growth? I mean this molecule: CN(C)CCCn1c2c(c3ccc(N4CCNCC4)cc3c1=O)C(=O)c1ccccc1-2
Result string: 13

Query string: Can you share its growth? I mean this molecule: N#CSc1c[nH]c2ccc(/C=C/C(=O)/C=C(/C=C/c3ccc4[nH]cc(SC#N)c4c3)OB(F)F)cc12
Result string: 94.9

Query string: Can you share its growth? I mean this molecule: CCN1C(=S)N(CC)C2C1NC(=S)N2/N=C/C=C/c1ccccc1 (centres undefined)
Result string: 51.1

Query string: Can you share its growth? I mean this molecule: O=C1/C(=C/c2ccc(F)c(F)c2)CN(C(=O)C(Cl)Cl)C/C1=C\c1ccc(F)c(F)c1
Result string: -86

Query string: Can you share its growth? I mean this molecule: COc1ccc(/C(C)=C(\c2ccc(OCCN3CCCCCC3)cc2)c2ccc(OC(=O)C3CCCCC3)cc2)cc1
Result string: 5.75

Query string: Can you share its growth? I mean this molecule: C=C(CN1CC=CCC1)[C@@H]1CC[C@]2(COC(C)=O)CC[C@]3(C)[C@H](CC[C@@H]4[C@@]5(C)CC[C@H](O)C(C)(C)[C@@H]5CC[C@]43C)[C@@H]12
Result string: 114

----------
System: RXF 393 renal
Experiment: NCI-60 one-dose screen, 48 h (100 = growth as untreated, 0 = no growth, -100 = all killed)
Settings: 10 µM unless noted
This is part of a sample that, as a whole, favours compounds with a hit. Of some 83,000 tested, about 20% had one in any assay.
QUANTITY KIND: growth (%)
Report the figure in % without appending any unit label.

[
  {
    "MOLECULE": "O=C1OCC2=C1C(c1cccc(C(F)(F)F)c1)c1cc3c(cc1N2CCO)OCCO3 (centres undefined)",
    "growth [%]": 10.9
  },
  {
    "MOLECULE": "[2H]C([2H])([2H])Oc1cccc(/C=C/C(=O)/C=C(/C=C/c2cccc(OC([2H])([2H])[2H])c2OC([2H])([2H])[2H])OB(F)F)c1OC([2H])([2H])[2H]",
    "growth [%]": 121
  },
  {
    "MOLECULE": "COc1ccc(-c2cc(-c3cccnc3)nc3sc4c(Cl)nnnc4c23)cc1OC",
    "growth [%]": 104
  },
  {
    "MOLECULE": "O=C(Nc1ncc(Cc2cccc(C(F)(F)F)c2)s1)c1ccc2c(c1)OCCO2",
    "growth [%]": 19.6
  },
  {
    "MOLECULE": "O=C(Nc1ccccc1C(=O)N/N=C(\\c1ccccc1)c1ccccn1)c1ccccc1",
    "growth [%]": 21.4
  }
]

Query string: Can you share its growth? I mean this molecule: CCCn1nc(C(=O)N2CCCCC2)c2c1CCC(N1CCC(c3ccncc3)CC1)C2 (centres undefined)
Result string: 117

----------
Test system: HCC-2998 colon
Test: NCI-60 one-dose screen, 48 h
Conditions: 10 µM unless noted
The panel holds about 83,000 compounds, 20% with a hit somewhere; the sample as a whole holds those more often. The source made the active and inactive calls. Rule for the calls: active = growth percent below 10; inactive = the rest.
The reply should be one of these categories: 1 (yes) = active, 0 (no) = inactive

Known results for compounds:
[
  {
    "COMPOUND": "Cc1ccc(-c2nc3nc(-c4ccc(F)cc4)nc(N4CCCNCC4)c3o2)cc1",
    "GROUP LABEL": "1 (yes)"
  },
  {
    "COMPOUND": "COc1cc(CO)cc2cc3ccccc3nc12",
    "GROUP LABEL": "0 (no)"
  },
  {
    "COMPOUND": "c1ccc(-c2cc(-c3cc(-c4ccccc4)on3)no2)cc1",
    "GROUP LABEL": "0 (no)"
  },
  {
    "COMPOUND": "O=C1C(c2c[nH]c3ccccc23)=C(c2coc3cc(Br)ccc23)C(=O)N1O",
    "GROUP LABEL": "0 (no)"
  }
]

Query string: What was the test verdict on Cc1ccc2c(c1)C(C)Cc1c(ncnc1-n1cnc3cc(C)ccc31)N2C (stereo unspecified) ?
Result string: 0 (no)

Query string: What was the test verdict on COC1/C=C/OC2(C)Oc3c(C)c(O)c4c(O)c(c(C=NOC(c5ccccc5)c5ccccc5)c(O)c4c3C2=O)NC(=O)/C(C)=C/C=C/C(C)C(O)C(C)C(O)C(C)C(OC(C)=O)C1C (stereo unspecified) ?
Result string: 1 (yes)

----------
Tested on: DU-145 prostate
Assay: NCI-60 one-dose screen, 48 h (100 = growth as untreated, 0 = no growth, -100 = all killed)
Details: 100 µM
Compounds without any hit were thinned out: in the full panel of roughly 83,000, 20% have a hit.
// reported growth per item
Report the figure in % without appending any unit label.

Answered examples (4):
[
  {
    "TEST SMILES": "COc1ccc(C(=O)/C=C/c2ccc(OCc3ccc(Cl)cc3)cc2)cc1OC",
    "growth / %": 14.9
  },
  {
    "TEST SMILES": "CC(=O)/C=C/c1ccc(OCc2ccc(C(C)(C)C)cc2)cc1",
    "growth / %": 61
  },
  {
    "TEST SMILES": "CC(=O)/C=C/c1ccc(N(CCO)Cc2ccc(C(C)(C)C)cc2)cc1",
    "growth / %": -99.7
  },
  {
    "TEST SMILES": "COc1ccc(C(=O)/C=C/c2ccc(OCc3cccc(C(F)(F)F)c3)c(OC)c2)cc1OC",
    "growth / %": 19.4
  }
]

Now look at this one.
Query string: Can you share its growth? I mean this compound: CC(=O)/C=C/c1ccc(OCc2ccc(Cl)cc2)cc1
Result string: 52.9

----------
Test system: UACC-257 melanoma
Assay: NCI-60 one-dose screen, 48 h
Settings: 10 µM unless noted
The panel holds about 83,000 compounds, 20% with a hit somewhere; the sample as a whole holds those more often. The source made the active and inactive calls. The calls were made as follows: active = growth percent below 10; inactive = the rest.
The reply should be one of these categories: true = active, false = inactive

[
  {
    "TEST SMILES": "O=C1c2cc3c(cc2-c2c1c1ccc(Cl)cc1c(=O)n2CCCn1ccnc1)OCO3",
    "SYSTEM TESTED": "UACC-257 melanoma",
    "GROUP LABEL": "true"
  },
  {
    "TEST SMILES": "C=C1C(=O)O[C@H]2[C@H]1CC/C(COC(=O)NCCCCNC(=O)OC/C1=C/CC[C@@]3(C)O[C@H]3[C@H]3OC(=O)C(=C)[C@@H]3CC1)=C\\CC[C@@]1(C)O[C@@H]21",
    "SYSTEM TESTED": "UACC-257 melanoma",
    "GROUP LABEL": "true"
  },
  {
    "TEST SMILES": "Cn1cc2c(=O)nc3c(-c4nc5ccccc5[nH]4)n[nH]n3c2n1",
    "SYSTEM TESTED": "UACC-257 melanoma",
    "GROUP LABEL": "false"
  }
]

Query string: What was the test verdict on Cn1cc(C2=C(c3cccc4ccccc34)C(=O)NC2=O)c2cc(Br)ccc21 ?
Result string: false
